Listed below: TGI values for each entry.
- Test system: HOP-18 NSCLC
- EXPERIMENTAL_PROTOCOL: NCI tumour cell line growth inhibition, 48 h
Numeric answer only, unit µM assumed.

Ask: Quick one: TGI for "Clc1ccc(C[P+](c2ccccc2)(c2ccccc2)c2ccccc2)cc1Cl" ?
Result: 11

Ask: Do the same for O=C(CCCN1CCC(C(O)c2ccc(F)cc2)CC1)c1ccc(F)cc1 (stereo not drawn) please
Result: 142

* * *

- Tested on: ACHN renal
- EXPERIMENTAL_PROTOCOL: NCI tumour cell line growth inhibition, 48 h
Quick reference: TGI of the listed items.

[
  {
    "COMPOUND": "CCCCNc1ccc(Nc2ccccc2)cc1",
    "ASSAYED_TARGET": "ACHN renal",
    "MEASURED_ENDPOINT": "TGI",
    "EXPERIMENTAL_RESULT": "> 100 µM"
  },
  {
    "COMPOUND": "COC(=O)c1cc(OC)c(OC)c(OC)c1-c1cc2c(cc1C=O)OCO2",
    "ASSAYED_TARGET": "ACHN renal",
    "MEASURED_ENDPOINT": "TGI",
    "EXPERIMENTAL_RESULT": "> 10 µM"
  },
  {
    "COMPOUND": "CC1OC(OC2C(O[C@H]3CC[C@@]4(C)C(=CC[C@H]5[C@@H]6C[C@@H]7O[C@]8(CC[C@@H](C)CO8)[C@@H](C)[C@@H]7[C@@]6(C)CC[C@@H]54)C3)OC(CO)C(O)C2O)C(O)C(O)C1O (stereo partly drawn)",
    "ASSAYED_TARGET": "ACHN renal",
    "MEASURED_ENDPOINT": "TGI",
    "EXPERIMENTAL_RESULT": "3.44 µM"
  },
  {
    "COMPOUND": "O=c1c(Cc2ccc(Cl)cc2)nnc2sc(-c3ccc(-c4ccc(Cl)cc4Cl)o3)nn12",
    "ASSAYED_TARGET": "ACHN renal",
    "MEASURED_ENDPOINT": "TGI",
    "EXPERIMENTAL_RESULT": "> 100 µM"
  },
  {
    "COMPOUND": "CN(CCCCCl)P(=O)(OCc1ccc([N+](=O)[O-])o1)OCC1OC(n2cnc([N+](=O)[O-])c2N)C(O)C1O (stereo not drawn)",
    "ASSAYED_TARGET": "ACHN renal",
    "MEASURED_ENDPOINT": "TGI",
    "EXPERIMENTAL_RESULT": "> 100 µM"
  }
]

Ask: What value of TGI has been reported for the following compound? "Cl.Fc1c[c-]c(-c2ccccn2)c(F)c1.[Pt].c1ccc([PH+](C[PH+](c2ccccc2)c2ccccc2)c2ccccc2)cc1"
Result: 0.463 µM

Ask: Param item: C/C(=C/CC[C@]1(CO)CC[C@]2(C)[C@H](CC[C@@H]3[C@@]4(C)CC[C@H](OC5OC(CO)C(O)C(O)C5OC5OC(CO)C(O)C(O)C5O)C(C)(C)[C@@H]4CC[C@]32C)[C@H]1O)CO (stereo partly drawn)
Result: > 100 µM
